system: NCI-H1793; assay: relative viability (nuclei count vs DMSO), 5 days (fraction); higher = more cells survive; details: first compound 0.08 µM
Kindly state relative viability for each of the entries shown.
Numbers only.

Worked set:
compound: CCCCCCCCCCCC1=C(O)C(=O)C=C(O)C1=O [Embelin] + O=C(c1cc(Cc2n[nH]c(=O)c3ccccc23)ccc1F)N1CCN(C(=O)C2CC2)CC1 [Olaparib] (partner 8 µM)
quantity_measured: relative viability
value_reported: 0.993
--
compound: CCCCCCCCCCCC1=C(O)C(=O)C=C(O)C1=O [Embelin] + CC(=O)Nc1cccc(-n2c(=O)n(C3CC3)c(=O)c3c(Nc4ccc(I)cc4F)n(C)c(=O)c(C)c32)c1 [Trametinib] (partner 0.02 µM)
quantity_measured: relative viability
value_reported: 0.398
--
compound: CCCCCCCCCCCC1=C(O)C(=O)C=C(O)C1=O [Embelin] + CCNC(=O)c1noc(-c2cc(C(C)C)c(O)cc2O)c1-c1ccc(CN2CCOCC2)cc1 [Luminespib] (partner 0.01 µM)
quantity_measured: relative viability
value_reported: 0.175
--
compound: CCCCCCCCCCCC1=C(O)C(=O)C=C(O)C1=O [Embelin] + Cc1cc(Nc2cc(N3CCN(C)CC3)nc(Sc3ccc(NC(=O)C4CC4)cc3)n2)n[nH]1 [Tozasertib] (partner 0.1 µM)
quantity_measured: relative viability
value_reported: 0.399
--
compound: CCCCCCCCCCCC1=C(O)C(=O)C=C(O)C1=O [Embelin] + CC1(C)CCC(c2ccc(Cl)cc2)=C(CN2CCN(c3ccc(C(=O)NS(=O)(=O)c4ccc(N[C@H](CCN5CCOCC5)CSc5ccccc5)c(S(=O)(=O)C(F)(F)F)c4)cc3)CC2)C1 [Navitoclax] (partner 0.5 µM)
quantity_measured: relative viability
value_reported: 0.461

// next item, relative viability requested
Entry CCCCCCCCCCCC1=C(O)C(=O)C=C(O)C1=O [Embelin] + Nc1ncn([C@H]2C[C@H](O)[C@@H](CO)O2)c(=O)n1 [Decitabine] (partner 2 µM) — recorded relative viability = 0.586

====

test system: LK-2; assay: relative viability (nuclei count vs DMSO), 5 days (fraction); higher = more cells survive; conditions: first compound 4 µM
quantity_measured: relative viability
Answers are plain numbers.

compound: C[C@@H]1CN(CC(=O)Nc2ccc3c(c2)Cc2cccc(-c4cc(=O)cc(N5CCOCC5)o4)c2S3)C[C@H](C)O1 + O=C(c1cc(Cc2n[nH]c(=O)c3ccccc23)ccc1F)N1CCN(C(=O)C2CC2)CC1 [Olaparib] (partner 8 µM)
tested_on: LK-2
relative viability: 0.321
//
compound: C[C@@H]1CN(CC(=O)Nc2ccc3c(c2)Cc2cccc(-c4cc(=O)cc(N5CCOCC5)o4)c2S3)C[C@H](C)O1 + N=C(N)NC(=N)NCCc1ccccc1 [Phenformin] (partner 250 µM)
tested_on: LK-2
relative viability: 0.634
//
compound: Clc1ccc(Nc2nnc(Cc3ccncc3)c3ccccc23)cc1 [Vatalanib] + CC1(C)CCC(c2ccc(Cl)cc2)=C(CN2CCN(c3ccc(C(=O)NS(=O)(=O)c4ccc(N[C@H](CCN5CCOCC5)CSc5ccccc5)c(S(=O)(=O)C(F)(F)F)c4)cc3)CC2)C1 [Navitoclax] (partner 0.5 µM)
tested_on: LK-2
relative viability: 0.807
//
compound: COc1cc(N2CCC(C(N)=O)CC2)ccc1Nc1nc(N)c(Cl)c(Nc2ccccc2S(=O)(=O)C(C)C)n1 [HG-5-88-01] + CS(=O)(=O)N1CCN(Cc2cc3nc(-c4cccc5[nH]ncc45)nc(N4CCOCC4)c3s2)CC1 [Pictilisib] (partner 1 µM)
tested_on: LK-2
relative viability: 0.614
//
compound: COc1cc(N2CCC(C(N)=O)CC2)ccc1Nc1nc(N)c(Cl)c(Nc2ccccc2S(=O)(=O)C(C)C)n1 [HG-5-88-01] + COc1cccc2cc(-c3nc([C@H]4CC[C@H](C(=O)O)CC4)n4ncnc(N)c34)[nH]c12 [OSI-027] (partner 0.5 µM)
tested_on: LK-2
relative viability: 0.175

Fill in relative viability for each of the 3 compounds listed.
1. COc1cc(N2CCC(C(N)=O)CC2)ccc1Nc1nc(N)c(Cl)c(Nc2ccccc2S(=O)(=O)C(C)C)n1 [HG-5-88-01] + COc1cc2c(Oc3ccc(NC(=O)C4(C(=O)Nc5ccc(F)cc5)CC4)cc3F)ccnc2cc1OCCCN1CCOCC1 [Foretinib] (partner 0.25 µM)
2. Clc1ccc(Nc2nnc(Cc3ccncc3)c3ccccc23)cc1 [Vatalanib] + CC(=O)Nc1cccc(-n2c(=O)n(C3CC3)c(=O)c3c(Nc4ccc(I)cc4F)n(C)c(=O)c(C)c32)c1 [Trametinib] (partner 0.02 µM)
3. COc1cc(N2CCC(C(N)=O)CC2)ccc1Nc1nc(N)c(Cl)c(Nc2ccccc2S(=O)(=O)C(C)C)n1 [HG-5-88-01] + Nc1nc2[nH]cc(CCc3ccc(C(=O)N[C@@H](CCC(=O)O)C(=O)O)cc3)c2c(=O)[nH]1 [Pemetrexed] (partner 0.2 µM)

Result string:
[0.808, 0.667, 0.202]

====

tested on: A-427; assay: relative viability (nuclei count vs DMSO), 5 days (fraction); higher = more cells survive; settings: first compound 1.265 µM
Field 'label' (enum: yes / no). Set to yes when relative viability is strictly under 0.8; else no.

Examples with answers:
compound: COc1cc(N2CCC(C(N)=O)CC2)ccc1Nc1nc(N)c(Cl)c(Nc2ccccc2S(=O)(=O)C(C)C)n1 [HG-5-88-01] + C[C@@H](Oc1cc(-c2cnn(C3CCNCC3)c2)cnc1N)c1c(Cl)ccc(F)c1Cl [Crizotinib] (partner 1 µM)
tested_on: A-427
discrete_label: no
//
compound: Clc1ccc(Nc2nnc(Cc3ccncc3)c3ccccc23)cc1 [Vatalanib] + Cc1cc(Nc2cc(N3CCN(C)CC3)nc(Sc3ccc(NC(=O)C4CC4)cc3)n2)n[nH]1 [Tozasertib] (partner 0.1 µM)
tested_on: A-427
discrete_label: yes
//
compound: COc1cc(N2CCC(C(N)=O)CC2)ccc1Nc1nc(N)c(Cl)c(Nc2ccccc2S(=O)(=O)C(C)C)n1 [HG-5-88-01] + CCNC(=O)c1noc(-c2cc(C(C)C)c(O)cc2O)c1-c1ccc(CN2CCOCC2)cc1 [Luminespib] (partner 0.01 µM)
tested_on: A-427
discrete_label: yes
//
compound: COc1cc(N2CCC(C(N)=O)CC2)ccc1Nc1nc(N)c(Cl)c(Nc2ccccc2S(=O)(=O)C(C)C)n1 [HG-5-88-01] + COc1cc2c(Oc3ccc(NC(=O)C4(C(=O)Nc5ccc(F)cc5)CC4)cc3F)ccnc2cc1OCCCN1CCOCC1 [Foretinib] (partner 0.25 µM)
tested_on: A-427
discrete_label: no
//
compound: COc1cc(N2CCC(C(N)=O)CC2)ccc1Nc1nc(N)c(Cl)c(Nc2ccccc2S(=O)(=O)C(C)C)n1 [HG-5-88-01] + Nc1nc2[nH]cc(CCc3ccc(C(=O)N[C@@H](CCC(=O)O)C(=O)O)cc3)c2c(=O)[nH]1 [Pemetrexed] (partner 0.2 µM)
tested_on: A-427
discrete_label: no

Query string: Dear reviewer, please state whether COc1cc(N2CCC(C(N)=O)CC2)ccc1Nc1nc(N)c(Cl)c(Nc2ccccc2S(=O)(=O)C(C)C)n1 [HG-5-88-01] + O=C(CCCCCCC(=O)Nc1ccccc1)NO [Vorinostat] (partner 1 µM) has relative viability strictly beneath 0.8.
Result string: no

Query string: Dear reviewer, please state whether COc1cc(N2CCC(C(N)=O)CC2)ccc1Nc1nc(N)c(Cl)c(Nc2ccccc2S(=O)(=O)C(C)C)n1 [HG-5-88-01] + N=C(N)NC(=N)NCCc1ccccc1 [Phenformin] (partner 250 µM) has relative viability strictly beneath 0.8.
Result string: yes

Query string: Dear reviewer, please state whether COc1cc(N2CCC(C(N)=O)CC2)ccc1Nc1nc(N)c(Cl)c(Nc2ccccc2S(=O)(=O)C(C)C)n1 [HG-5-88-01] + CC1(C)CCC(c2ccc(Cl)cc2)=C(CN2CCN(c3ccc(C(=O)NS(=O)(=O)c4ccc(N[C@H](CCN5CCOCC5)CSc5ccccc5)c(S(=O)(=O)C(F)(F)F)c4)cc3)CC2)C1 [Navitoclax] (partner 0.5 µM) has relative viability strictly beneath 0.8.
Result string: no

====

system: NCI-H2347; assay: relative viability (nuclei count vs DMSO), 5 days (fraction); higher = more cells survive; conditions: first compound 0.3162 µM
quantity_measured: relative viability
Answers are plain numbers.

Fill in relative viability for each of the 7 compounds listed.
1. CC(C)Oc1cc(Nc2nc(N[C@@H](C)c3ccc(F)cn3)ncc2Cl)n[nH]1 [AZ23] + Nc1ncn([C@H]2C[C@H](O)[C@@H](CO)O2)c(=O)n1 [Decitabine] (partner 2 µM)
2. CC(C)Oc1cc(Nc2nc(N[C@@H](C)c3ccc(F)cn3)ncc2Cl)n[nH]1 [AZ23] + N=C(N)NC(=N)NCCc1ccccc1 [Phenformin] (partner 250 µM)
3. CC(C)Oc1cc(Nc2nc(N[C@@H](C)c3ccc(F)cn3)ncc2Cl)n[nH]1 [AZ23] + Nc1nc2[nH]cc(CCc3ccc(C(=O)N[C@@H](CCC(=O)O)C(=O)O)cc3)c2c(=O)[nH]1 [Pemetrexed] (partner 0.2 µM)
4. CC(C)Oc1cc(Nc2nc(N[C@@H](C)c3ccc(F)cn3)ncc2Cl)n[nH]1 [AZ23] + CS(=O)(=O)N1CCN(Cc2cc3nc(-c4cccc5[nH]ncc45)nc(N4CCOCC4)c3s2)CC1 [Pictilisib] (partner 1 µM)
5. CC(C)Oc1cc(Nc2nc(N[C@@H](C)c3ccc(F)cn3)ncc2Cl)n[nH]1 [AZ23] + CC(C)C[C@H](NC(=O)[C@H](Cc1ccccc1)NC(=O)c1cnccn1)B(O)O [Bortezomib] (partner 0.002 µM)
6. CC(C)Oc1cc(Nc2nc(N[C@@H](C)c3ccc(F)cn3)ncc2Cl)n[nH]1 [AZ23] + C[C@]1(O)C[C@@H](c2nc(-c3ccc4ccc(-c5ccccc5)nc4c3)c3c(N)nccn32)C1 [Linsitinib] (partner 1 µM)
7. CC(C)Oc1cc(Nc2nc(N[C@@H](C)c3ccc(F)cn3)ncc2Cl)n[nH]1 [AZ23] + CC1(C)CCC(c2ccc(Cl)cc2)=C(CN2CCN(c3ccc(C(=O)NS(=O)(=O)c4ccc(N[C@H](CCN5CCOCC5)CSc5ccccc5)c(S(=O)(=O)C(F)(F)F)c4)cc3)CC2)C1 [Navitoclax] (partner 0.5 µM)

Result string:
0.625
0.455
0.459
0.543
0.979
0.926
0.818
